Reference for the values: patent US20110318339A1

A collection of binders and their measured ELISA absorbance at 450 nm
Target: T1, recombinant human DLL4 (Cat# 1506-D4/CF, R&D Systems) (human, UniProt Q9NR61 27-529)
T1 construct: Bought protein; also called hDLL4; rHuman DLL4
Assay: ELISA, DLL4 coated, Fab 6.67 nM
ENDPOINT NAME: ELISA absorbance at 450 nm

binder="Fab VH1-46_IGHD6-6*01_IGHJ1*01 S102A/S103P/S104F/H111F I51V/N52L/S54T/G56H & L6_IGKJ1*01 S28N/S30D/S31H S52L/A55G (Fab, V domains shown, Fab made in E. coli: VH on CH1 with His6 and Flag tags (Plasmid A), VL on kappa CL (Plasmid C); also called H: APFF VLTH & L: NDH LG) VH: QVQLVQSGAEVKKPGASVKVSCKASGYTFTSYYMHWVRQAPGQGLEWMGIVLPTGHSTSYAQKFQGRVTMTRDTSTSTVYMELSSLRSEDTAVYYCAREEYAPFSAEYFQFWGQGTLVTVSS VL: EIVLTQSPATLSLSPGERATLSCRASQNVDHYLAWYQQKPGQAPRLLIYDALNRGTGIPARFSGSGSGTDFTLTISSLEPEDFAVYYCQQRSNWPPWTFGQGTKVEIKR" recorded_result="0.916 A450"
binder="Fab VH5-51_IGHD5-18*01>3_IGHJ4*01 G100K/G104T & V3-4_IGLJ1*01 (Fab, V domains shown, Fab made in E. coli: VH on CH1 with His6 and Flag tags (Plasmid A), VL on lambda CL (Plasmid E); also called H: KT & L: wt) VH: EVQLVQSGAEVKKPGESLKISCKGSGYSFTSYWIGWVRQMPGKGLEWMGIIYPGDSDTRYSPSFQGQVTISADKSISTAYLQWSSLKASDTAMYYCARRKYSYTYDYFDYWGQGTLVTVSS VL: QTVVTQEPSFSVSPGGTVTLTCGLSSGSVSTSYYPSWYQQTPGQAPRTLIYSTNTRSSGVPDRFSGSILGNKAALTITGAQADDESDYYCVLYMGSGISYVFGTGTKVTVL" recorded_result="0.042 A450"
